Task for the reader: assign each of the following compounds its reported thermal shift delta Tm.
test system: LOC_OS01G21960-cb002; assay: thermal shift delta Tm vs DMSO control; higher = stronger stabilization (binding); settings: 12.5 µM; protein concentration 2 µM;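 also: purified Escherichia coli-expressed rice kinase domain construct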
Give the quantity in °C, number only.

Prompt line: Field: thermal shift delta Tm (LOC_OS01G21960-cb002). Entry: "NC(=O)Nc1cc(-c2cccc(F)c2)sc1C(=O)N[C@H]1CCCNC1"
Response line: 3.38

Prompt line: Field: thermal shift delta Tm (LOC_OS01G21960-cb002). Entry: N#Cc1c(NC(=O)c2cccc3ccccc23)sc2c1CCCC2 [JNK Inhibitor IX]
Response line: 0.78

Prompt line: Field: thermal shift delta Tm (LOC_OS01G21960-cb002). Entry: COC(=O)N[C@@H](C)CNc1nccc(-c2cn(C(C)C)nc2-c2cc(Cl)cc(NS(C)(=O)=O)c2F)n1 [Encorafenib (LGX818)]
Response line: 0.28

Prompt line: Field: thermal shift delta Tm (LOC_OS01G21960-cb002). Entry: O=C(/C=C/c1ccc(O)c(O)c1)c1ccc(O)cc1O [Butein]
Response line: 3.26

Prompt line: Field: thermal shift delta Tm (LOC_OS01G21960-cb002). Entry: "COc1c(C)c(C(=O)c2ccc(N)c(C(=O)O)c2)n2ccccc12"
Response line: 0.79

---

Task for the reader: assign each of the following compounds its reported thermal shift delta Tm.
system: LOC_OS01G70970-cb002; experiment: thermal shift delta Tm vs DMSO control; higher = stronger stabilization (binding); settings: 12.5 µM; protein concentration 2 µM
Give the quantity in °C, number only.

Prompt line: Request the reported thermal shift delta Tm associated with "Cc1csc(-c2nnc(Nc3ccc(Oc4ncccc4-c4ccnc(N)n4)cc3)c3ccccc23)c1"
Response line: 0.74

Prompt line: Request the reported thermal shift delta Tm associated with "O=C(O)c1ccc(Nc2ncc3c(n2)-c2ccc(Cl)cc2C(c2c(F)cccc2F)=NC3)cc1"
Response line: 0.46

Prompt line: Request the reported thermal shift delta Tm associated with CO[C@H]1C[C@@H]2CC[C@@H](C)[C@@](O)(O2)C(=O)C(=O)N2CCCC[C@H]2C(=O)O[C@H]([C@H](C)C[C@@H]2CC[C@@H](OCCO)[C@H](OC)C2)CC(=O)[C@H](C)/C=C(\C)[C@@H](O)[C@@H](OC)C(=O)[C@H](C)C[C@H](C)/C=C/C=C/C=C/1C [Everolimus (RAD001)]
Response line: -0.1

Prompt line: Request the reported thermal shift delta Tm associated with "CN1CCN(c2ccc(OC(F)(F)F)c(Nc3ncc4c(n3)-c3c(c(C(N)=O)nn3CCO)CC4)c2)CC1"
Response line: 0.12

Prompt line: Request the reported thermal shift delta Tm associated with "Fc1ccc2[nH]ccc2c1-c1nc(N2CCOCC2)c2sc(CN3CCN(CC4CC4)CC3)cc2n1"
Response line: 0.31

Prompt line: Request the reported thermal shift delta Tm associated with "COc1ccc(-c2cc3nccn3c(Nc3ncccc3C(N)=O)n2)cc1OC"
Response line: 0.22

Prompt line: Request the reported thermal shift delta Tm associated with "CNC(=O)c1ccccc1Nc1cc(Nc2ccc(N3CCOCC3)cc2OC)ncc1C(F)(F)F"
Response line: 10.3

---

Tested on: LOC_OS04G38480-cb003
Sequence (whole entry): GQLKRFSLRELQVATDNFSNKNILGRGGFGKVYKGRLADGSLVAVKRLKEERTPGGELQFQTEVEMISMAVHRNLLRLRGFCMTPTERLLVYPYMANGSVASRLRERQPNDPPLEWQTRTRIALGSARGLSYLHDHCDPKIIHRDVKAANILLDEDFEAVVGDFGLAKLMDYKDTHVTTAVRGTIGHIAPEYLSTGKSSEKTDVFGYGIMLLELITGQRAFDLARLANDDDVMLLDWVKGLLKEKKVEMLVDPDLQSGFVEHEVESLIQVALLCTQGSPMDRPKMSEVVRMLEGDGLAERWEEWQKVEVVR
Experiment: thermal shift delta Tm vs DMSO control; higher = stronger stabilization (binding)
Settings: 12.5 µM; protein concentration 2 µM
Task for the reader: assign each of the following compounds its reported thermal shift delta Tm.
Give the quantity in °C, number only.

Prompt line: Request the reported thermal shift delta Tm associated with "CC(C)(C)c1nc(-c2cccc(NS(=O)(=O)c3c(F)cccc3F)c2F)c(-c2ccnc(N)n2)s1"
Response line: 2.46

Prompt line: Request the reported thermal shift delta Tm associated with "COc1cc2c(Nc3ccc(NC(=O)c4ccccc4)cc3)ncnc2cc1OCCCN1CCOCC1"
Response line: 0.65

Prompt line: Request the reported thermal shift delta Tm associated with "COc1cc(N2CCC(N(C)C)CC2)ccc1Nc1ncc(Cl)c(Nc2ccccc2P(C)(C)=O)n1"
Response line: 3.65

Prompt line: Request the reported thermal shift delta Tm associated with "CC(=O)c1c(C)c2cnc(Nc3ccc(N4CCNCC4)cn3)nc2n(C2CCCC2)c1=O"
Response line: 1.9

Prompt line: Request the reported thermal shift delta Tm associated with "O=C(Nc1ccc(OC(F)(F)F)cc1)c1sccc1NCc1ccnc2ccccc12"
Response line: 0.95

Prompt line: Request the reported thermal shift delta Tm associated with "O=C(NCCCNc1nc(Nc2cccc(NC(=O)N3CCCC3)c2)ncc1I)c1cccs1"
Response line: 3.4

Prompt line: Request the reported thermal shift delta Tm associated with "CCNC(=O)C#Cc1ccc2c(C(=Nc3ccc(CN(C)C)cc3)c3ccccc3)c(O)[nH]c2c1"
Response line: 1.25

Prompt line: Request the reported thermal shift delta Tm associated with Clc1ccc(Nc2nnc(Cc3ccncc3)c3ccccc23)cc1 [Vatalanib (PTK787) 2HCl]
Response line: -0.05

Prompt line: Request the reported thermal shift delta Tm associated with "Cc1ccc(NC(=O)c2ccc(CN3CCN(C)CC3)cc2)cc1Nc1nc(-c2cccnc2)cs1"
Response line: 0.69

---

tested on: LOC_OS01G02750-cb003; experiment: thermal shift delta Tm vs DMSO control; higher = stronger stabilization (binding); details: 12.5 µM; protein concentration 2 µM
MEASURE: thermal shift delta Tm (°C)
Give the quantity in °C, number only.

Prompt line: Field: thermal shift delta Tm (LOC_OS01G02750-cb003). Entry: Cc1ccc(Nc2nccc(N(C)c3ccc4c(C)n(C)nc4c3)n2)cc1S(N)(=O)=O [Pazopanib]
Response line: 0.45

Prompt line: Field: thermal shift delta Tm (LOC_OS01G02750-cb003). Entry: "Cn1cc(/C=C2\C(=O)Nc3cccnc32)c2ccccc21"
Response line: 0.74

Prompt line: Field: thermal shift delta Tm (LOC_OS01G02750-cb003). Entry: OC(c1cc(-c2ccc(Cl)cc2)nc2ccccc12)C1CCCCN1 (configuration not stated)
Response line: 1.71

Prompt line: Field: thermal shift delta Tm (LOC_OS01G02750-cb003). Entry: CC1Oc2cc(cnc2N)-c2c(nn(C)c2C#N)CN(C)C(=O)c2ccc(F)cc21 (configuration not stated)
Response line: 1.64

Prompt line: Field: thermal shift delta Tm (LOC_OS01G02750-cb003). Entry: "C=C(C)[C@@H]1CC[C@]2(C)CC[C@]3(C)[C@H](CC[C@@H]4[C@@]5(C)CC[C@H](O)C(C)(C)[C@@H]5CC[C@]43C)[C@@H]12"
Response line: 0.62

Prompt line: Field: thermal shift delta Tm (LOC_OS01G02750-cb003). Entry: Cc1cc(C(C)Nc2ccccc2)c2nc(N3CCOCC3)cc(=O)n2c1 (configuration not stated)
Response line: -0.12

Prompt line: Field: thermal shift delta Tm (LOC_OS01G02750-cb003). Entry: "O=C(Nc1nc2cccc(-c3ccc(CN4CCS(=O)(=O)CC4)cc3)n2n1)C1CC1"
Response line: 0.46

Prompt line: Field: thermal shift delta Tm (LOC_OS01G02750-cb003). Entry: "O=C1NC(=O)/C(=C/c2ccc3nccc(-c4ccncc4)c3c2)S1"
Response line: 0.63

Prompt line: Field: thermal shift delta Tm (LOC_OS01G02750-cb003). Entry: "Cc1nc(Nc2ncc(C(=O)Nc3c(C)cccc3Cl)s2)cc(N2CCN(CCO)CC2)n1"
Response line: 0.59

Prompt line: Field: thermal shift delta Tm (LOC_OS01G02750-cb003). Entry: "O=C(Nc1cc(C(F)(F)F)cc(C(F)(F)F)c1)c1cc(Cl)ccc1O"
Response line: 2.23

Prompt line: Field: thermal shift delta Tm (LOC_OS01G02750-cb003). Entry: "C#Cc1cccc(Nc2ncnc3cc(OCCOC)c(OCCOC)cc23)c1"
Response line: 0.35

Prompt line: Field: thermal shift delta Tm (LOC_OS01G02750-cb003). Entry: "Cc1cn(-c2cc(NC(=O)c3ccc(C)c(Nc4nccc(-c5cnccn5)n4)c3)cc(C(F)(F)F)c2)cn1"
Response line: 1.63

Prompt line: Field: thermal shift delta Tm (LOC_OS01G02750-cb003). Entry: O=C(NC(NC(=S)Nc1ccc(F)c([N+](=O)[O-])c1)C(Cl)(Cl)Cl)C(c1ccccc1)c1ccccc1 (configuration not stated)
Response line: 9.2

Prompt line: Field: thermal shift delta Tm (LOC_OS01G02750-cb003). Entry: "CC(C)(C)S(=O)(=O)c1ccc2nccc(Nc3n[nH]c4ccc(F)cc34)c2c1"
Response line: 1.74

Prompt line: Field: thermal shift delta Tm (LOC_OS01G02750-cb003). Entry: "CC(=O)Nc1cccc(-n2c(=O)n(C3CC3)c(=O)c3c(Nc4ccc(I)cc4F)n(C)c(=O)c(C)c32)c1"
Response line: 1.28

Prompt line: Field: thermal shift delta Tm (LOC_OS01G02750-cb003). Entry: "C=CC(=O)N1CC[C@@H](Oc2nc(Nc3ccc(N4CCC(N5CCN(C)CC5)CC4)cc3)c(C(N)=O)nc2CC)C1"
Response line: 1.59

Prompt line: Field: thermal shift delta Tm (LOC_OS01G02750-cb003). Entry: "COc1ccc(S(=O)(=O)N(C(C)=O)c2ccccc2/C=C/c2cc[n+]([O-])cc2)cc1"
Response line: 0.48
